- assay-details: Tissue distribution in Swiss nu/nu SSCUP mice bearing Dau
- Assay type: in vivo, human
- condition-details: mouse, tumor, iv, 3 umol/animal; only during the 2 hours following injection, Dau; read-out: intratumoral concentration
measurement-label: tissue uptake

                                   compound  recorded_result
0  CCN(CC)CCNC(=O)c1ccc(I)cc1 [Derivative A, N-(2-diethylaminoethyl) 4-iodo benzamide]        > 1 %ID/g

###

- assay-details: Tissue distribution in Swiss nu/nu SSCUP mice bearing Beu
- Type: in vivo, human
- condition-details: mouse, spleen, iv, 3 umol/animal; 6 h; read-out: spleen % ID/g
measurement-label: tissue uptake at 6 h (%ID/g)

>>> print(df.to_string())
                                   compound     measurement_label  recorded_result
0  CCN(CC)CCNC(=O)c1ccc(I)cc1 [Derivative A, N-(2-diethylaminoethyl) 4-iodo benzamide]  tissue uptake at 6 h             0.28

src = patent US5190741A
